Listed here: items and their measured growth inhibition span ratio to WT, SKBR3 cells.
# test-target: HER2 expressed on the surface of cells (human, UniProt P04626 23-1255)
# assay-overview: cell-based or functional assay
Give just the number in fold; leave the unit off.

Answered cases to consult:
Variant 12471 (antibody, human IgG1, kappa, name in Kabat numbering, V domains shown, Kabat numbering; also called v12471; FSA version of v9996) VH: EVQLVESGGGLVQPGGSLRLSCAASGFTFADYTMDWVRQAPGKGLEWVGDVNPNSGGSIYNQRFKGRFTFSVDRSKNTLYLQMNSLRAEDTAVYYCARNLGPSFYFDYWGQGTLVTVSS VL: DIQMTQSPSSLSASVGDRVTITCKASQDVSIGVAWYQQKPGKAPKLLIYSASYRYTGVPSRFSGSGSGTDFTLTISSLQPEDFATYYCQQYYIYPATFGQGTKVEIKR : 1.3
Variant 14018 (antibody, name in Kabat numbering, V domains shown, also called v14018) VH: EVQLVESGGGLVQPGGSLRLSCAASGFTFTDYTMDWVRQAPGKGLEWVGDVNPNSGGSIYNQRFKGRFTFSVDRSWNTLYLQMNSLRAEDTAVYYCARNLGPSFYFDYWGQGTLVTVSS VL: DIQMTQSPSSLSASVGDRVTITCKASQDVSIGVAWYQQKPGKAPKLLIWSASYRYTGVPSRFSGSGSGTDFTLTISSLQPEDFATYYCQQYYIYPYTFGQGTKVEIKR : 1.7
Variant 14022 (antibody, name in Kabat numbering, V domains shown, also called v14022) VH: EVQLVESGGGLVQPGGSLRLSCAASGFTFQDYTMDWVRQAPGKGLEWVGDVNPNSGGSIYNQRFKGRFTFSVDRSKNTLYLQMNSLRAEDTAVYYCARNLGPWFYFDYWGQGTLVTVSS VL: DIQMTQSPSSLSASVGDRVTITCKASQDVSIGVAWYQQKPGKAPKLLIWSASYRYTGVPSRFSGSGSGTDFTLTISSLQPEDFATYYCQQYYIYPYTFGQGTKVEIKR : 1.6

Now examine the next entry.
Asked: Form field: reported growth inhibition span ratio to WT, SKBR3 cells of Variant 14021 (antibody, name in Kabat numbering, V domains shown, also called v14021) VH: EVQLVESGGGLVQPGGSLRLSCAASGFTFQDYTMDWVRQAPGKGLEWVGDVNPNSGGSIYNQRFKGRFTFSVDRSWNTLYLQMNSLRAEDTAVYYCARNLGPSFYFDYWGQGTLVTVSS VL: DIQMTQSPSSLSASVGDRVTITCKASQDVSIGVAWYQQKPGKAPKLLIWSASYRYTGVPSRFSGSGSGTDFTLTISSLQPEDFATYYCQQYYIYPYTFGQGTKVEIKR
Given back: 1.8
